System: ABC-1
Test: relative viability (nuclei count vs DMSO), 5 days (fraction); higher = more cells survive
Details: first compound 0.8 µM
Define the label as Criterion met when relative viability is strictly less than 0.7 and as Criterion not met in all remaining cases.

# COMPOUND, QUALITATIVE LABEL
measured = [
    ("CCCCCCCCCCCC1=C(O)C(=O)C=C(O)C1=O [Embelin] + Cc1nc(Nc2ncc(C(=O)Nc3c(C)cccc3Cl)s2)cc(N2CCN(CCO)CC2)n1 [Dasatinib] (partner 0.075 µM)", "Criterion met"),
    ("CCCCCCCCCCCC1=C(O)C(=O)C=C(O)C1=O [Embelin] + Cc1nc(NC(=O)N2CCC[C@H]2C(N)=O)sc1-c1ccnc(C(C)(C)C(F)(F)F)c1 [Alpelisib] (partner 2 µM)", "Criterion not met"),
    ("CCCCCCCCCCCC1=C(O)C(=O)C=C(O)C1=O [Embelin] + Cc1cc(Nc2cc(N3CCN(C)CC3)nc(Sc3ccc(NC(=O)C4CC4)cc3)n2)n[nH]1 [Tozasertib] (partner 0.1 µM)", "Criterion met"),
    ("CCCCCCCCCCCC1=C(O)C(=O)C=C(O)C1=O [Embelin] + COc1cc2c(Oc3ccc(NC(=O)C4(C(=O)Nc5ccc(F)cc5)CC4)cc3F)ccnc2cc1OCCCN1CCOCC1 [Foretinib] (partner 0.25 µM)", "Criterion not met"),
    ("CCCCCCCCCCCC1=C(O)C(=O)C=C(O)C1=O [Embelin] + N=C(N)NC(=N)NCCc1ccccc1 [Phenformin] (partner 250 µM)", "Criterion met"),
]

====

System: COR-L 105
Experiment: relative viability (nuclei count vs DMSO), 5 days (fraction); higher = more cells survive
Conditions: first compound 8 µM
Field: label. Allowed values: true (relative viability < 1) or false (relative viability >= 1).

# COMPOUND, QUALITATIVE LABEL
data = [
    ("CCCCCCCCCCCC1=C(O)C(=O)C=C(O)C1=O [Embelin] + CC(=O)c1c(C)c2cnc(Nc3ccc(N4CCNCC4)cn3)nc2n(C2CCCC2)c1=O [Palbociclib] (partner 0.5 µM)", "true"),
    ("CCCCCCCCCCCC1=C(O)C(=O)C=C(O)C1=O [Embelin] + CS(=O)(=O)N1CCN(Cc2cc3nc(-c4cccc5[nH]ncc45)nc(N4CCOCC4)c3s2)CC1 [Pictilisib] (partner 1 µM)", "true"),
    ("CCCCCCCCCCCC1=C(O)C(=O)C=C(O)C1=O [Embelin] + Nc1nc2[nH]cc(CCc3ccc(C(=O)N[C@@H](CCC(=O)O)C(=O)O)cc3)c2c(=O)[nH]1 [Pemetrexed] (partner 0.2 µM)", "false"),
    ("CCCCCCCCCCCC1=C(O)C(=O)C=C(O)C1=O [Embelin] + Cc1nc(NC(=O)N2CCC[C@H]2C(N)=O)sc1-c1ccnc(C(C)(C)C(F)(F)F)c1 [Alpelisib] (partner 2 µM)", "false"),
    ("CCCCCCCCCCCC1=C(O)C(=O)C=C(O)C1=O [Embelin] + C[C@]1(O)C[C@@H](c2nc(-c3ccc4ccc(-c5ccccc5)nc4c3)c3c(N)nccn32)C1 [Linsitinib] (partner 1 µM)", "true"),
]

====

System: RERF-LC-KJ
Assay: relative viability (nuclei count vs DMSO), 5 days (fraction); higher = more cells survive
Settings: first compound 0.1265 µM
Recorded relative viability values for a group of molecules are listed next.

# MOLECULE, relative viability
measured = [
    ("COc1cc(N2CCC(C(N)=O)CC2)ccc1Nc1nc(N)c(Cl)c(Nc2ccccc2S(=O)(=O)C(C)C)n1 [HG-5-88-01] + N=C(N)NC(=N)NCCc1ccccc1 [Phenformin] (partner 250 µM)", 0.4),
    ("COc1cc(N2CCC(C(N)=O)CC2)ccc1Nc1nc(N)c(Cl)c(Nc2ccccc2S(=O)(=O)C(C)C)n1 [HG-5-88-01] + O=C(c1cc(Cc2n[nH]c(=O)c3ccccc23)ccc1F)N1CCN(C(=O)C2CC2)CC1 [Olaparib] (partner 8 µM)", 0.957),
    ("COc1cc(N2CCC(C(N)=O)CC2)ccc1Nc1nc(N)c(Cl)c(Nc2ccccc2S(=O)(=O)C(C)C)n1 [HG-5-88-01] + CC(=O)c1c(C)c2cnc(Nc3ccc(N4CCNCC4)cn3)nc2n(C2CCCC2)c1=O [Palbociclib] (partner 0.5 µM)", 1.14),
    ("Clc1ccc(Nc2nnc(Cc3ccncc3)c3ccccc23)cc1 [Vatalanib] + NC(=O)Nc1cc(-c2cccc(F)c2)sc1C(=O)N[C@H]1CCCNC1 [AZD7762] (partner 0.2 µM)", 0.919),
]
